ASSAYED_TARGET: PD-1/PD-L1 (Homo sapiens (Human))
Sequence (Q9NZQ7 19-238): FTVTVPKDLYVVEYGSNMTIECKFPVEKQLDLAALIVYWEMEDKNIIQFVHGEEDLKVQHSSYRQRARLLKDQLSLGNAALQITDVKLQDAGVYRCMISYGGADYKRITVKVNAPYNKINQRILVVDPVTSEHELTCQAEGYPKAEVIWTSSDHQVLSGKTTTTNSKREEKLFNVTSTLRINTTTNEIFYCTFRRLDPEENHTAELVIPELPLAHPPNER
MEASUREMENT_NOTES: PD-1/PD-L1 biochemical protein-protein interaction assay (ALPHA)
CONDITION_PARAMETERS: 0.3 nM His tagged PD-L1, 2.5 nM biotinylated Fc-PD-1, 60 minutes at 25° C., read-out: IC50 PD-L1-PD1
pIC50: −log10 of the molar value.
QUANTITY_NAME: pIC50

MOLECULE | ASSAYED_TARGET | pIC50
COc1nc(-c2cccc(-c3cccc(-c4cnc(CN5CC6(CNC(=O)C6)C5)c(OC5CC5)n4)c3Cl)c2Cl)ccc1CN1CC2(CNC(=O)C2)C1 | PD-1/PD-L1 (Homo sapiens (Human)) | 9.87
COc1nc(-c2cccc(-c3cccc(-c4cnc(CNC[C@@H]5COC(=O)N5)c(OC)n4)c3Cl)c2Cl)cnc1CNC[C@@H]1CCC(=O)N1 | PD-1/PD-L1 (Homo sapiens (Human)) | 9.68
COc1nc(-c2cccc(-c3cccc(-c4cnc(CNCCCN5CCCS5(=O)=O)c(OC)n4)c3Cl)c2Cl)cnc1CNCCCN1CCCS1(=O)=O | PD-1/PD-L1 (Homo sapiens (Human)) | 9.38
CCn1cc(CN2CC3(CNC(=O)C3)C2)c2ncc(-c3cccc(-c4cccc(-c5cnc(CN6CC7(CNC(=O)C7)C6)c(OC)n5)c4Cl)c3Cl)nc21 | PD-1/PD-L1 (Homo sapiens (Human)) | 10.10
COc1nc(-c2cccc(-c3cccc(-c4cnc(CN(CCO)CC(F)(F)F)c(OC)n4)c3Cl)c2Cl)cnc1CNC[C@@H]1CCC(=O)N1 | PD-1/PD-L1 (Homo sapiens (Human)) | 9.17

P = COc1nc(-c2cccc(-c3cccc(-c4cnc(CN5CCC(c6ccccn6)C5)c(OC)n4)c3Cl)c2Cl)cnc1CNC[C@@H]1CCC(=O)N1 (stereo partly drawn)
Q = COc1nc(-c2cccc(-c3cccc(-c4cnc(CN[C@@H]5CC[C@H](O)C5)c(OC)n4)c3Cl)c2Cl)cnc1CNC[C@@H]1CCC(=O)N1
R = COc1nc(-c2cccc(-c3cccc(-c4cnc(CNC(C)(C)C(F)F)c(OC)n4)c3Cl)c2Cl)cnc1CNC[C@@H]1CCC(=O)N1
Query: Order the items by recorded pIC50; the first position goes to the largest value. Reply with the item labels sorted in the order that was asked for.
Reply: Q, P, R

A = CNc1nc(-c2cccc(-c3cccc(-c4cnc(CN5CC6(CCC(=O)N6)C5)c(NC)n4)c3Cl)c2Cl)cnc1CN1CC2(CCC(=O)N2)C1
B = COc1nc(-c2cccc(-c3cccc(-c4cnc(CNC5CCCN(C(C)=O)C5)c(OC)n4)c3Cl)c2Cl)cnc1CNC[C@H]1CCC(=O)N1 (stereo partly drawn)
Query: For the pair A and B , which member has the lower pIC50 number? Please indicate the selected item by its label.
Reply: A

I = COc1nc(-c2cccc(-c3cccc(-c4ccc5c(CN6CC(O)C6)cn(C)c5n4)c3Cl)c2Cl)cnc1CN1CC(O)C1
II = COc1nc(-c2cccc(-c3cccc(-c4cnc(CN5CC(OC)C5)c(OC)n4)c3Cl)c2Cl)ccc1CN1CC(OC)C1
Query: Between the entries labeled I and II , whose measured pIC50 is lower? Reply briefly: the label of your chosen item.
Reply: II
(II: 8.87, I: 10.04)
